experimental.details: Novel Modifiers of Survival Motor Neuron (SMN) Protein: Gene Identification via Genome-wide siRNA Screen;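 also: luminescence tracks full-length SMN protein made from the SMN2 reporter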
condition.details: HEK293T SMN2-luciferase reporter, siRNA knockdown, 72 h; actives lie on both sides
In all, about 31,000 sequences went through this assay and about 1,400 (4.5%) were called active. The full list was thinned out, with actives kept by preference.
// class assignment uses median seed-adjusted z-score with these ranges: low (below -0.1), medium (-0.1 to below 0.05), high (0.05 or more)

Reference set, count: 3
GGAUUACUCUUUUGGUGCATT against IRF5
low
GCACCAGCGAGAGAAGAGATT against PLA2G3
high
GAAAGAAAUCAACUGAUGATT against FBP1
low

Moving on to the next sequence.
Query block: Dear colleague, I would appreciate it if you could identify the bin for AGAUUGUAGUUGUGGAUCATT against CDH15 and reply at your convenience.
Result block: medium

Values were extracted from PubChem BioAssay AID1347426.
